test system: WRL68; assay: Cytotoxicity against human WRL68 cells; type: cell-based
pIC50: −log10 of the molar value.

{"sampleSmiles": "CO[C@H]1C=C(COC(C)=O)C(=O)[C@H](O)[C@H]1O", "pIC50": "< 3.70"}
{"sampleSmiles": "OCC1=C[C@H](O)[C@H](O)[C@@H](O)[C@@H]1O", "pIC50": "< 3.70"}
{"sampleSmiles": "CC(=O)OCC1=C[C@H](OCc2ccc3ccccc3c2)[C@H](O)[C@@H](O)C1=O", "pIC50": "< 3.70"}
